# System: clinical strains of E. cloacae
# test: MIC, microdilution, clinical strains
# Type: cell-based
# conditions used: Enterobacter cloacae strain 2, Muller Hinton broth-cation adjusted, 0.02% BSA, 0.2% acetic acid
Where a SMILES comes first, the peptide text is derived from it. [ ]: non-standard residue; d: D form.
property label: Minimum inhibitory concentration
Please respond with just the number, no unit label.

Guide cases for Minimum inhibitory concentration, answers given:
- CC(C)C[C@@H](NC(=O)[C@H](N)CCCNC(=N)N)C(=O)N[C@H](CCCCN)C(=O)N[C@H](Cc1c[nH]c2ccccc12)C(=O)N[C@H](Cc1ccccc1)C(=O)N[C@H](CC(C)C)C(=O)N[C@H](CC(C)C)C(=O)N[C@H](Cc1ccccc1)C(=O)N[C@H](CCCNC(=N)N)C(=O)N[C@H](CCCCN)C(=O)N[C@H](CCCNC(=N)N)C(=O)O [Chain308D] (H-[dR][dL][dK][dW][dF][dL][dL][dF][dR][dK][dR]-OH): 2
- CC(C)C[C@@H](NC(=O)[C@@H](CCCCN)NC(=O)[C@@H](Cc1c[nH]c2ccccc12)NC(=O)[C@@H](CCCCN)NC(=O)[C@@H](C)NC(=O)[C@@H](Cc1c[nH]cn1)NC(=O)[C@@H](CC(C)C)NC(=O)[C@@H](CCCNC(=N)N)NC(=O)[C@@H](Cc1c[nH]c2ccccc12)NC(=O)[C@H](N)Cc1c[nH]c2ccccc12)C(=O)N[C@H](Cc1c[nH]c2ccccc12)C(=O)O [Chain109D] (H-[dW][dW][dR][dL][dH][dA][dK][dW][dK][dL][dW]-OH): 8

The recorded Minimum inhibitory concentration for CC(C)C[C@@H](NC(=O)[C@H](N)CCCNC(=N)N)C(=O)N[C@H](CCCCN)C(=O)N[C@H](Cc1c[nH]c2ccccc12)C(=O)N[C@H](Cc1ccccc1)C(=O)N[C@H](Cc1c[nH]c2ccccc12)C(=O)N[C@H](CC(C)C)C(=O)N[C@H](Cc1ccccc1)C(=O)N[C@H](CCCNC(=N)N)C(=O)N[C@H](CCCCN)C(=O)N[C@H](CCCNC(=N)N)C(=O)O [Chain307D] (H-[dR][dL][dK][dW][dF][dW][dL][dF][dR][dK][dR]-OH) is 8
